Collected TGI values appear next to each entry.
Test system: HCT-15 colon
Assay: NCI tumour cell line growth inhibition, 48 h
Hi! Could you send only the number? It should be in µM, unit omitted.

Quick one: TGI for C=CC1CC12C(=O)C1OC2(C)C2C(=O)c3c(ccc4c3ccc3ccccc34)C(=O)C12 (stereo unspecified) ?
80.6

Quick one: TGI for Cc1c(C(=O)/C=C/c2ccc(Cl)cc2)[n+](=O)c2ccccc2n1[O-] ?
24.1

Quick one: TGI for O=C1OCC(C#Cc2ccccc2)=C1Cl ?
15.7

Quick one: TGI for COc1ccc2c3c1OC1C(=O)C=CC4(O)C(C2)NCC[C@@]314 (stereo partly specified) ?
11.3

Quick one: TGI for CC[N+]1(C)CCC(O)(c2ccc(Cl)cc2)C(C(=O)c2ccc(Cl)cc2)C1 (stereo unspecified) ?
41.3

* * *

Test system: HOP-92 NSCLC
Assay: NCI tumour cell line growth inhibition, 48 h; in the data active means GI50 below about 0.43 µM; inactive means the rest
Classes to choose from: yes (1) (active), no (0) (inactive)

# count of solved cases: 2
COC(CCP(=O)(c1ccccc1)c1ccccc1)(C(=O)c1ccccc1)c1ccccc1 (centres undefined): no (0)
CC(=O)O[C@H]1CC[C@]2(C)[C@H]3CC[C@@H]4[C@H]5[C@H](C(C)C)CC[C@]5(C(=O)OCC(CO)(CO)N=C(N)N)CC[C@@]4(C)[C@]3(C)CC[C@H]2C1(C)C: no (0)

What outcome does the record of this test show for COc1ccc2[nH]cc(-c3nc(-c4cn(C)c5ccncc45)cs3)c2c1 ?
no (0)

What outcome does the record of this test show for CC(C)(C)c1ccc([I+]c2ccc(C(C)(C)C)cc2)cc1 ?
no (0)

What outcome does the record of this test show for C=CC1CC12C(=O)C1OC2(C)C2C(=O)c3c(ccc4c3ccc3ccccc34)C(=O)C12 (centres undefined) ?
no (0)

What outcome does the record of this test show for COc1ccc2c(c1)CC[C@@H]1[C@@H]2CC[C@@]2(C)[C@H]1CC1(CCCCC1)[C@@H]2O ?
no (0)

What outcome does the record of this test show for CC(=O)/C=C/C1=C(c2cc3ccccc3s2)c2ccccc2CC1 ?
no (0)

What outcome does the record of this test show for COc1cnc2c(c1)C(=O)c1c-2n(CCCn2ccnc2)c(=O)c2cc(Cl)ccc12 ?
yes (1)

What outcome does the record of this test show for O=C1/C(=C/c2ccccc2Cl)N=C(c2ccccc2)N1Cc1ccco1 ?
no (0)

What outcome does the record of this test show for COC(=O)CCC(=O)c1c(C)[nH]c(/C=C2\N=C(c3ccc[nH]3)C=C2OC)c1C ?
no (0)

What outcome does the record of this test show for Cn1c(COC(=O)N2CCCCC2)nc2c(N3CCOCC3)nc(-c3ccccc3)nc21 ?
no (0)

What outcome does the record of this test show for CCN(CC)c1ccc2c(c1)Oc1nc(N)c(C#N)c(N)c1C2Sc1ccc(SC)cc1 (centres undefined) ?
no (0)

What outcome does the record of this test show for ClCCN(CCCl)c1ccc(-n2cnc3c(Cl)ncnc32)cc1 ?
no (0)

What outcome does the record of this test show for CC(ONC(=O)c1cc(C(F)(F)F)cc(C(F)(F)F)c1)C(=O)Nc1ccc(Cl)cc1 (centres undefined) ?
no (0)

* * *

Test system: DU-145 prostate
Assay: NCI tumour cell line growth inhibition, 48 h
Readout name: TGI

Quick one: TGI for CCOP(=O)(/C=C\n1cnc2c(=O)n(C(C)=O)c(N)nc21)OCC ?
> 100 µM

Quick one: TGI for Cc1csc2nc(-c3ccc([N+](=O)[O-])cc3)c(/C=N/N=C(N)N)n12 ?
4.3 µM

Quick one: TGI for CN(C)CCNc1ccc([N+](=O)[O-])c2nc3ccccc3c(N)c12 ?
> 10 µM

Quick one: TGI for COc1ccc2c3c1OC1C(=O)C=CC4(O)C(C2)NCC[C@@]314 (some centres not stated) ?
13.1 µM

* * *

System: RPMI-8226 leukemia
Assay: NCI tumour cell line growth inhibition, 48 h; in the data active means GI50 below about 0.43 µM; inactive means the rest
Classes to choose from: active, inactive

# count of solved cases: 3
C=CC1CC12C(=O)C1OC2(C)C2C(=O)c3c(ccc4c3ccc3ccccc34)C(=O)C12 (stereo not given): inactive
COc1cnc2c(c1)C(=O)c1c-2n(CCCn2ccnc2)c(=O)c2cc(Cl)ccc12: active
COc1ccc(-c2n[nH]nc2-c2csc3ccccc23)cc1OC: inactive

What outcome does the record of this test show for O=C1OCC(C#Cc2ccccc2)=C1Cl ?
inactive

What outcome does the record of this test show for CCCN(CCC)c1ccc(CO)c(C)c1 ?
inactive

* * *

Collected TGI values appear next to each entry.
Tested on: HT29 colon
Assay: NCI tumour cell line growth inhibition, 48 h
Hi! Could you send only the number? It should be in µM, unit omitted.

Use these answered entries as a reference point.
CC(=O)O[C@H]1CC[C@]2(C)[C@H]3CC[C@@H]4[C@H]5[C@H](C(C)C)CC[C@]5(C(=O)OCC(CO)(CO)N=C(N)N)CC[C@@]4(C)[C@]3(C)CC[C@H]2C1(C)C: 3.29
CCc1c2c(nc3cc4c(cc13)OCO4)-c1cc3c(c(=O)n1C2)COC(=O)[C@@]3(CC)OC(=O)CN: 3.83
CCN(CC)c1ccc2c(c1)Oc1nc(N)c(C#N)c(N)c1C2Sc1ccc(SC)cc1 (stereo not drawn): 4.61

--- query ---
Given the entry CC(=O)O[C@@H]1CO[C@H]2O[C@H]3[C@@H](C(C=O)=C[C@H](O)[C@@H]4C5=C(C(C)C)CC[C@]5(C)CC[C@@]34C)[C@@]2(O)C1=O , what TGI was observed with HT29 colon?
0.471

* * *

Tested on: NCI/ADR-RES ovarian
Assay: NCI tumour cell line growth inhibition, 48 h; in the data active means GI50 below about 0.43 µM; inactive means the rest
Classes to choose from: TRUE = active, FALSE = inactive

# count of solved cases: 4
Cn1c(=O)cc2c3c(c(NCCCO)ccc31)C(=O)c1ccccc1-2: FALSE
O=C(COc1cccc(/C=C2\COc3ccccc3C2=O)c1)Nc1nccs1: FALSE
COc1ccc2c(c1)CC[C@@H]1[C@@H]2CC[C@@]2(C)[C@H]1CC1(CCCCC1)[C@@H]2O: FALSE
COc1cnc2c(c1)C(=O)c1c-2n(CCCn2ccnc2)c(=O)c2cc(Cl)ccc12: TRUE

Please find the next compound below.
What outcome does the record of this test show for O=C1OCC(C#Cc2ccccc2)=C1Cl ?
FALSE

* * *

Tested on: PC-3 prostate
Test: NCI tumour cell line growth inhibition, 48 h
Collected TGI values appear next to each entry.
Hi! Could you send only the number? It should be in µM, unit omitted.

Use these answered entries as a reference point.
O=C(CN1CCN(C(=O)OCc2ccccc2)CCN(CC(=O)N2CCCCC2)CCN(C(=O)OCc2ccccc2)CC1)N1CCCCC1: 37.3
COc1ccc(Cc2nc3cc(C(F)(F)F)ccc3n2CCCN(C)C)cc1: 75
CN(C)CCNc1ccc([N+](=O)[O-])c2nc3ccccc3c(N)c12: 2.87

--- query ---
Quick one: TGI for COc1ccc(-c2n[nH]nc2-c2csc3ccccc23)cc1OC ?
35.4

* * *

Tested on: SF-295 CNS
Experiment: NCI tumour cell line growth inhibition, 48 h
Would you please tag the item YES when its TGI is 40 µM or above, and NO when it is below?

Could you tell me if the measured TGI of O=C(Oc1ccccc1)c1cc2cc(CCl)ccc2oc1=O reaches 40 µM or more?
YES

* * *

System: PC-3 prostate
Assay: NCI tumour cell line growth inhibition, 48 h; in the data active = GI50 below about 0.43 µM; inactive = the rest
Classes to choose from: active, inactive

# count of solved cases: 3
O=C1OCC(C#Cc2ccccc2)=C1Cl: inactive
CS(=O)(=O)CCNCc1ccc(-c2ccc3ncnc(Nc4ccc(OCc5cccc(C(F)(F)F)c5)cc4)c3c2)o1: inactive
CC(=O)/C=C/C1=C(c2cc3ccccc3s2)c2ccccc2CC1: inactive

Please find the next compound below.
What outcome does the record of this test show for Cn1c(=O)cc2c3c(c(NCCCO)ccc31)C(=O)c1ccccc1-2 ?
inactive

* * *

Collected TGI values appear next to each entry.
Test system: SNB-19 CNS
Assay: NCI tumour cell line growth inhibition, 48 h

Use these answered entries as a reference point.
CC(c1ccc(Br)cc1)C(C(=O)O)C(=O)O (stereo not given): > 100 µM
CCP(=O)(CC)C(Cl)(Cl)C(O)C(C)(C)C (stereo not given): > 100 µM
NC(=O)CCC(NCc1c2ccccc2[n+]([O-])c2ccccc12)C(=O)O (stereo not given): > 100 µM
NC1CC(=O)c2csc(Br)c21 (stereo not given): > 80.3 µM
O=C1c2ccccc2-c2nc(-c3cccnc3)cc3c2c1nc1ccccc13: > 100 µM
CCCCCCCCCCCCCCCc1cc(O)ccc1N: > 100 µM
O=C(O)C1C2CC3C(OC(=O)C31)C2Br (stereo not given): > 100 µM
Cc1cc(NS(=O)(=O)c2ccc(NC(=O)c3cccc4c(N)c5ccccc5nc34)cc2)no1: 34 µM
Cc1ccc2c(c1)NC(=O)CCSSCCC(=O)N2: > 100 µM
O=C1OC(c2ccc(O)c(-c3ccccc3)c2)(c2ccc(O)c(-c3ccccc3)c2)c2c(Cl)c(Cl)c(Cl)c(Cl)c21: > 100 µM

Quick one: TGI for CC(C)CCC1(O)O[C@H]2C[C@H]3[C@@H]4CCC5CC(=O)C=C[C@]5(C)[C@H]4CC[C@]3(C)[C@H]2[C@@H]1C (stereo not given in full) ?
31.3 µM

Quick one: TGI for CCSC1=N/C(=C\c2ccccc2O)C(Nc2ccc(C)cc2)=N1 ?
> 100 µM

meta.source: PubChem BioAssay (NCI)
